protocol: Measurement of Log P values by HPLC on reversed phase columns (EEC directive 79/831 Annex V.A8)
Format: physicochemical
test parameters: method [a]: LC-UV, acidic range, 0.1% formic acid in water and acetonitrile as eluent
Experimental: Measurement of Log P values as provided herein was performed according to EEC directive 79/831 Annex V.A8 by HPLC (High Performance Liquid Chromatography) on reversed phase columns with the following methods: • ^[a] Log P value is determined by measurement of LC-UV, in an acidic range, with 0.1% formic acid in water and acetonitrile as eluent (linear gradient from 10% acetonitrile to 95% acetonitrile). • ^[b] […]
Rule: chromatographic logP below 4 gives Satisfied. Equal to or above 4 gives Not satisfied.

As a guide, the following entries are already answered.
[
  {
    "molecule": "Cc1cccc(Oc2nnc3ccccc3c2C2=NOCC(Cc3ccc(C)cc3C)N2)c1 (racemic)",
    "class assignment": "Satisfied"
  },
  {
    "molecule": "Cc1ccc(C[C@H](CCl)N/C(=N\\O)c2c(Oc3cccc(C4CC4)c3F)nnc3ccccc23)c(C)c1 (racemic)",
    "class assignment": "Not satisfied"
  }
]

Lookup: Is the reported chromatographic logP for Cc1ccc(C[C@@H](CON)NC(=O)c2c(Oc3cccc(C(F)(F)F)c3)nnc3cc(C)ccc23)c(C)c1 (racemic) strictly below 4?
Found: Satisfied

Lookup: Next molecule up: Cc1ccc(C[C@H](CON2C(=O)c3ccccc3C2=O)NC(=O)c2c(Oc3cccc(Cl)c3F)nnc3c2CCCC3)c(C)c1 (racemic)
Found: Not satisfied

Lookup: Next molecule up: Cc1ccc(C[C@H](CCl)NC(=O)c2c(Oc3cccc(C(F)(F)F)c3)cnc3ccoc23)c(C)c1 (racemic)
Found: Not satisfied

Lookup: Next molecule up: Cc1ccc(C[C@H](CCl)NC(=NO)c2c(Br)cnc3nccnc23)c(C)c1 (racemic)
Found: Satisfied

###

protocol: Measurement of Log P values by HPLC on reversed phase columns (EEC directive 79/831 Annex V.A8)
Format: physicochemical
test parameters: method [a]: LC-UV, acidic range, 0.1% formic acid in water and acetonitrile as eluent
assay endpoint: chromatographic logP
Keep the answer to the number alone.

[
  {
    "compound": "FC(F)(F)c1cccc(Oc2cnc3ccccc3c2C2=NC[C@@H](Cc3ccc(Cl)cc3)N2)c1 (racemic)",
    "assay endpoint": "chromatographic logP",
    "experimental result": 2.46
  }
]

Lookup: I would be grateful if you could share the reported chromatographic logP for Cc1ccc(CC(CCl)NC(=O)c2c(Oc3cccc(C(F)(F)F)c3)cnc3ccccc23)c(C)c1 (racemic) .
Found: 4.81

Lookup: Next compound up: Cc1ccc(CC(CON)NC(=O)c2c(Oc3cccc(Cl)c3)nnc3ccccc23)c(C)c1 (racemic)
Found: 2.8

Lookup: Next compound up: Cc1ccc(C[C@@H]2CON=C(c3c(Oc4cccc(C5CC5)c4F)cnc4nccnc34)N2)c(C)c1 (racemic)
Found: 3.5

Lookup: Next compound up: Cc1ccc(C[C@H](CON2C(=O)c3ccccc3C2=O)NC(=O)c2c(Oc3cccc(C(F)(F)F)c3)nnc3c2CCC3)c(C)c1 (racemic)
Found: 4.47

Lookup: Next compound up: Cc1ccc(C[C@@H]2CON=C(c3c(Oc4cccc(Cl)c4F)nnc4c3CCCC4)N2)c(C)c1 (racemic)
Found: 3.91

###

protocol: Measurement of Log P values by HPLC on reversed phase columns (EEC directive 79/831 Annex V.A8)
Assay type: physicochemical
test parameters: method [a]: LC-UV, acidic range, 0.1% formic acid in water and acetonitrile as eluent
assay endpoint: chromatographic logP
Keep the answer to the number alone.

Example results:
[
  {
    "compound": "Cc1ccc(CC(CCl)NC(=O)c2c(Oc3cccc(C4CC4)c3F)nnc3ccccc23)c(C)c1 (racemic)",
    "assay endpoint": "chromatographic logP",
    "experimental result": 4.73
  },
  {
    "compound": "Cc1ccc(C[C@@H]2CON=C(c3c(Oc4cccc(C(F)(F)F)c4)nnc4c3CCC4)N2)c(C)c1 (racemic)",
    "assay endpoint": "chromatographic logP",
    "experimental result": 3.87
  },
  {
    "compound": "Cc1ccc(CC(CON2C(=O)c3ccccc3C2=O)NC(=O)c2c(Oc3cccc(Cl)c3)nnc3ccccc23)c(C)c1 (racemic)",
    "assay endpoint": "chromatographic logP",
    "experimental result": 4.49
  },
  {
    "compound": "C=Cc1cccc(Oc2cnc3ccccc3c2C(=O)N[C@@H](CON)Cc2ccc(C)cc2Cl)c1 (racemic)",
    "assay endpoint": "chromatographic logP",
    "experimental result": 3.12
  },
  {
    "compound": "Cc1ccc(C[C@H](CCl)NC(=NO)c2c(Oc3cccc(C(F)(F)F)c3)cnc3ccoc23)c(C)c1 (racemic)",
    "assay endpoint": "chromatographic logP",
    "experimental result": 4.4
  }
]

Lookup: I would be grateful if you could share the reported chromatographic logP for Cc1ccc(C[C@H](CON)NC(=O)c2c(Oc3cccc(C(F)F)c3)nnc3c2CCCC3)c(C)c1 (racemic) .
Found: 2.55

Lookup: Next compound up: Cc1ccc(C[C@@H]2CON=C(c3c(Br)cnc4nccnc34)N2)c(C)c1 (racemic)
Found: 2.41

###

protocol: Measurement of Log P values by HPLC on reversed phase columns (EEC directive 79/831 Annex V.A8)
Type: physicochemical
test parameters: method [b]: LC-UV, neutral range, 0.001 molar ammonium acetate solution in water and acetonitrile as eluent
assay endpoint: chromatographic logP
Keep the answer to the number alone.

Example results:
[
  {
    "molecule": "Cc1ccc(C[C@@H](CON)NC(=O)c2c(Oc3cccc(C(F)(F)F)c3)nnc3cc(C)ccc23)c(C)c1 (racemic)",
    "experimental result": 3.62
  },
  {
    "molecule": "CCOC(=O)c1c(Oc2cccc(C(F)(F)F)c2)nnc2c1CCC2",
    "experimental result": 3.35
  },
  {
    "molecule": "Cc1ccc(C[C@@H]2CON=C(c3c(Oc4cccc(C(F)(F)F)c4)nnc4cc(C)ccc34)N2)c(C)c1 (racemic)",
    "experimental result": 4.27
  }
]

The record that follows has no chromatographic logP shown yet.
Lookup: I would be grateful if you could share the reported chromatographic logP for "O=C(O)c1c(Oc2cccc(C(F)(F)F)c2)nnc2c1CCC2" .
Found: 0.44

###

Measured chromatographic logP, listed per entry for reference.
protocol: Measurement of Log P values by HPLC on reversed phase columns (EEC directive 79/831 Annex V.A8)
Format: physicochemical
test parameters: method [a]: LC-UV, acidic range, 0.1% formic acid in water and acetonitrile as eluent
Keep the answer to the number alone.

Example results:
[
  {
    "molecule": "Cc1ccc(C[C@@H]2CON=C(c3c(Oc4cccc(C(F)(F)F)c4)cnc4ccccc34)N2)c(C)c1 (racemic)",
    "chromatographic logP": 4.19
  },
  {
    "molecule": "FC(F)(F)c1cccc(Oc2nnc3ccccc3c2C2=NOC[C@@H](Cc3ccc(Br)cc3Cl)N2)c1 (racemic)",
    "chromatographic logP": 4.44
  },
  {
    "molecule": "Cc1ccc(C[C@H](CON)NC(=O)c2c(Oc3cccc(C(F)(F)F)c3)nnc3c2CCCC3)c(C)c1 (racemic)",
    "chromatographic logP": 2.91
  },
  {
    "molecule": "Cc1ccc(C[C@H](CCl)NC(=NO)c2c(Oc3cccc(C4CC4)c3F)cnc3ccccc23)c(Cl)c1 (racemic)",
    "chromatographic logP": 4.93
  },
  {
    "molecule": "Cc1ccc(C[C@H](CON2C(=O)c3ccccc3C2=O)NC(=O)c2c(Oc3cccc(Br)c3F)nnc3c2CCCC3)c(C)c1 (racemic)",
    "chromatographic logP": 4.51
  }
]

The record that follows has no chromatographic logP shown yet.
Lookup: I would be grateful if you could share the reported chromatographic logP for C#Cc1cccc(Oc2cnc3ccccc3c2C(=O)N[C@@H](CON)Cc2ccc(C)cc2Cl)c1 (racemic) .
Found: 2.87

###

protocol: Measurement of Log P values by HPLC on reversed phase columns (EEC directive 79/831 Annex V.A8)
Format: physicochemical
test parameters: method [a]: LC-UV, acidic range, 0.1% formic acid in water and acetonitrile as eluent
Measured chromatographic logP, listed per entry for reference.
Keep the answer to the number alone.

Example results:
[
  {
    "compound": "Cc1ccc(CC2CNN=C(c3c(Oc4cccc(C(F)(F)F)c4)cnc4ccccc34)N2)c(C)c1 (racemic) [Compound I-010]",
    "chromatographic logP": 2.57
  },
  {
    "compound": "Cc1ccc(C[C@H](CON)NC(=O)c2c(Oc3cccc(C4CC4)c3F)nnc3c2CCC3)c(C)c1 (racemic) [Compound 4-15]",
    "chromatographic logP": 2.83
  }
]

Lookup: I would be grateful if you could share the reported chromatographic logP for C=Cc1cccc(Oc2cnc3ccccc3c2C(=O)N[C@@H](CON)Cc2ccc(C)cc2C)c1 (racemic) [Compound 4-06] .
Found: 3.09

Lookup: Next compound up: Cc1ccc(CC2CON=C(c3c(Oc4cccc(C5CC5)c4F)nnc4ccccc34)N2)c(C)c1 (racemic) [Compound I-006]
Found: 4.37

Lookup: Next compound up: Cc1ccc(C[C@@H]2CON=C(c3c(Oc4cccc(C5CC5)c4)nnc4ccccc34)N2)c(C)c1 (racemic) [Compound I-003]
Found: 4.11

Lookup: Next compound up: Cc1ccc(C[C@H](CON2C(=O)c3ccccc3C2=O)NC(=O)c2c(Oc3cccc(C(F)F)c3)nnc3c2CCCC3)c(C)c1 (racemic) [Compound 3-13]
Found: 4.13
